System: RPMI-8226 leukemia
Test: NCI-60 one-dose screen, 48 h (100 = growth as untreated, 0 = no growth, -100 = all killed)
Details: 10 µM unless noted
About 83,000 compounds went through this panel and 20% of them were active in at least one assay; those are over-represented in the sample as a whole. Calls of active or inactive are those of the source. Rule for the calls: active = growth percent below 10; inactive = the rest.
Exercise: state measured growth for each of the molecules provided.

Query block: GET /values?readout=growth&item= `CCCCCCCCNC(=O)C(C)C`
Result block: 99.1% (inactive)

Query block: GET /values?readout=growth&item= `CCOc1ccc(C(=O)NCC(C)C)cc1`
Result block: 105% (inactive)

Query block: GET /values?readout=growth&item= COC1(OC)C2(Cl)C(Cl)=C(Cl)C1(Cl)C1COCC12 (centres undefined)
Result block: 106% (inactive)

Query block: GET /values?readout=growth&item= `NS(=O)(=O)c1cc(=O)[nH]c(=O)[nH]1`
Result block: 118% (inactive)

Query block: GET /values?readout=growth&item= `C1C[S+]2CC[S+]1CC2`
Result block: 95.1% (inactive)

Query block: GET /values?readout=growth&item= `CCCc1cccc(CCC)c1NC(=O)Nc1cc(Cl)cc(Cl)c1`
Result block: 96.7% (inactive)

Query block: GET /values?readout=growth&item= `CCCCCC#CC(=O)O`
Result block: 99.7% (inactive)

Query block: GET /values?readout=growth&item= `Cc1ccc(NCN2C(=O)c3ccccc3C2=O)c(C)n1`
Result block: 105% (inactive)

Consider the additional molecule presented here.
Query block: GET /values?readout=growth&item= `O=C(NC(=S)N1CC=CCC1)c1ccccc1`
Result block: 104% (inactive)

Each recorded value in this set is attributed to PubChem BioAssay (NCI).
